These measurements were taken from paper PMC7819943.

- System under test: OsSMF1 (Oryza sativa, UniProt Q6ZLB0 1-436)
- Sequence: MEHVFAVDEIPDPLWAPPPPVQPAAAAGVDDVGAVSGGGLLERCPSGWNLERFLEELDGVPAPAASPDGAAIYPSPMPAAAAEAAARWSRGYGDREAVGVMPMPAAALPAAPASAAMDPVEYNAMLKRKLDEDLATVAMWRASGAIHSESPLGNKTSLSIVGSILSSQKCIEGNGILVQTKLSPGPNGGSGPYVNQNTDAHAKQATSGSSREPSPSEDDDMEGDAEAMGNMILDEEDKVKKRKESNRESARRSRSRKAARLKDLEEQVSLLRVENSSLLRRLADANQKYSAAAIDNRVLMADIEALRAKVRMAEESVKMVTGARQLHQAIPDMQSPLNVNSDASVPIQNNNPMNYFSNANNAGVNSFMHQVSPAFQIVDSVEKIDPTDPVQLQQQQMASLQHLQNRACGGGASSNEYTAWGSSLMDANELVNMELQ
- Test name: protein-binding microarray (RPBM); PBS, 2% BSA, 51.3 ng/ul salmon testes DNA, 50 uM zinc acetate, 200 nM TF, 25 C, 1 h; high values mean tight binding
- Recorded conditions: protein: recombinant; tags: N-terminal polyhistidine and DsRed monomer fusion (pET32a); chain copies: 2; label: CyDye5-dUTP incorporated in the synthesized complementary strand; 3' TTTTT single-stranded linker to array surface; dsDNA, one strand shown
Whole data set: some 39,000 sequences, median “fluorescence intensity (a.u.)” near 4,300, cut for the highest 2% near 39,000. Many of the other results were omitted from the sample, so the highest values are more common in it than they were.
Entries annotated with measured binding signal

Example cases with answers are listed next.
GATTCGAGATTCAGGTAGGTTGTATAGTTCACGGGAGCAACGGAGTCACCTAGTGCAG 64500 fluorescence intensity (a.u.)
TATGATTTTAAATTCGTCATACTCTAGTTAGCCTAGAAAACGGAGTCACCTAGTGCAG 3430 fluorescence intensity (a.u.)
TTCTATTTTCGCATGTGGCATTTGTGGCTGCTTGCTAGACCGGAGTCACCTAGTGCAG 3690 fluorescence intensity (a.u.)

binding signal lookup needed for CGAGGATTTGAGATCTGAGATGGCACGGACACTAGACAACCGGAGTCACCTAGTGCAG , thanks.
3440 fluorescence intensity (a.u.)

I am curious: what binding signal value has been reported for TGTTAAATTCGTCTCGCAAAATAGCCTAAGGGTTATAGAACGGAGTCACCTAGTGCAG ?
40500 fluorescence intensity (a.u.)

Query: binding signal; subject: AGGTACGTAAATTTTATATATTCCATATGAGCTCTAAATACGGAGTCACCTAGTGCAG
3580 fluorescence intensity (a.u.)
